# key: entry, value: Mean Diameter
# assay_protocol: LNP hydrodynamic diameter and PDI by DLS (Example 16 LNPs, Stunner)
# Assay type: physicochemical
# conditions: Example 16 LNPs: 47.5% Ionizable Lipid: 40% cholesterol: 2.5% PEG-2000 DMG: 10% DPSC, N/P 4-8

| molecule | Mean Diameter, nm |
| --- | --- |
| CC/C=C\CCCCOC(CCC(=O)OCCCCCCN(CCO)CCCN(CCCCCC(=O)OCCCCCCCCC)CCCCCC(=O)OCCCCCCCCC)OCCCC/C=C\CC [Example 7-5] | 81.3 |
| CC/C=C\CCCCOC(CCC(=O)OCCCCCCN(CCO)CCCN(CCCCCCOC(=O)CCC(OCCCC/C=C\CC)OCCCC/C=C\CC)CCCCCCOC(=O)CCC(OCCCC/C=C\CC)OCCCC/C=C\CC)OCCCC/C=C\CC [Example 7-1] | 90.2 |
| CC/C=C\CCCCOC(CCC(=O)OCCCCCCN(CCCCCCOC(=O)CCC(OCCCC/C=C\CC)OCCCC/C=C\CC)CCCN(CCO)CCCCCCCC(=O)OCCCCCCCCC)OCCCC/C=C\CC [Example 7-3] | 69.1 |
| CC/C=C\CCCCOC(CCC(=O)OCCCCCCCN(CCCCCCCOC(=O)CCC(OCCCC/C=C\CC)OCCCC/C=C\CC)CCCN(CCCO)CCCCCCCC(=O)OCCCCCCCCC)OCCCC/C=C\CC [Example 7-28] | 98.8 |
| CC/C=C\CCCCOC(CCC(=O)OCCCCCCCN(CCCO)CCN(CCCCCCCCCOC(=O)C(CCCC)CCCCCC)CCCCCCCCCOC(=O)C(CCCC)CCCCCC)OCCCC/C=C\CC (centres unmarked) [Example 7-27] | 81.7 |
| CC/C=C\CCCCOC(CCC(=O)OCCCCCCN(CCO)CCN(CCCCCCCCCOC(=O)C(CCCC)CCCCCC)CCCCCCCCCOC(=O)C(CCCC)CCCCCC)OCCCC/C=C\CC (centres unmarked) [Example 7-15] | 77.3 |
| CC/C=C\CCCCOC(CCC(=O)OCCCCCCCN(CCCCCCCOC(=O)CCC(OCCCC/C=C\CC)OCCCC/C=C\CC)CCN(CCCO)CCCCCCCC(=O)OCCCCCCCCC)OCCCC/C=C\CC [Example 7-19] | 90.6 |
| CC/C=C\CCCCOC(CCC(=O)OCCCCCCN(CCCCCCOC(=O)CCC(OCCCC/C=C\CC)OCCCC/C=C\CC)CCN(CCO)CCCCCCCC(=O)OCCCCCCCCC)OCCCC/C=C\CC [Example 7-12] | 74.4 |
| CC/C=C\CCCCOC(CCC(=O)OCCCCCCN(CCO)CCCN(CCCCCCCC(=O)OCCCCCCCCC)CCCCCCCC(=O)OCCCCCCCCC)OCCCC/C=C\CC [Example 7-6] | 85.7 |
| CC/C=C\CCCCOC(CCC(=O)OCCCCCCN(CCO)CCCN(CCCCCCCCCOC(=O)C(CCCC)CCCCCC)CCCCCCCCCOC(=O)C(CCCC)CCCCCC)OCCCC/C=C\CC (centres unmarked) [Example 7-8] | 91.0 |
| CC/C=C\CCCCOC(CCC(=O)OCCCCCCCN(CCO)CCCN(CCCCCCOC(=O)C(CCCC)CCCCCC)CCCCCCOC(=O)C(CCCC)CCCCCC)OCCCC/C=C\CC (centres unmarked) [Example 7-9] | 89.2 |

---

# key: entry, value: Mean Encapsulation Efficiency
# assay_protocol: LNP encapsulation efficiency by Ribogreen assay (Example 16 LNPs)
# Assay type: physicochemical
# conditions: Example 16 LNPs: 47.5% Ionizable Lipid: 40% cholesterol: 2.5% PEG-2000 DMG: 10% DPSC, N/P 4-8
reported_property: Mean Encapsulation Efficiency (%)

| compound | quantitative_readout |
| --- | --- |
| CC/C=C\CCCCOC(CCC(=O)OCCCCCCN(CCO)CCCN(CCCCCC(=O)OCCCCCCCCC)CCCCCC(=O)OCCCCCCCCC)OCCCC/C=C\CC [Example 7-5] | 49.0 |
| CC/C=C\CCCCOC(CCC(=O)OCCCCCCN(CCCO)CCN(CCCCCCOC(=O)C(CCCC)CCCCCC)CCCCCCOC(=O)C(CCCC)CCCCCC)OCCCC/C=C\CC (stereo not drawn) [Example 7-20] | 71.4 |
| CC/C=C\CCCCOC(CCC(=O)OCCCCCCN(CCO)CCCN(CCCCCCOC(=O)C(CCCC)CCCCCC)CCCCCCOC(=O)C(CCCC)CCCCCC)OCCCC/C=C\CC (stereo not drawn) [Example 7-7] | 57.4 |
| CC/C=C\CCCCOC(CCC(=O)OCCCCCCN(CCCCCCOC(=O)CCC(OCCCC/C=C\CC)OCCCC/C=C\CC)CCCN(CCO)CCCCCCCC(=O)OCCCCCCCCC)OCCCC/C=C\CC [Example 7-3] | 85.1 |
| CC/C=C\CCCCOC(CCC(=O)OCCCCCCCN(CCCO)CCCN(CCCCCCCOC(=O)CCC(OCCCC/C=C\CC)OCCCC/C=C\CC)CCCCCCCOC(=O)CCC(OCCCC/C=C\CC)OCCCC/C=C\CC)OCCCC/C=C\CC [Example 7-29] | 83.2 |
| CC/C=C\CCCCOC(CCC(=O)OCCCCCCN(CCCCCCOC(=O)CCC(OCCCC/C=C\CC)OCCCC/C=C\CC)CCN(CCO)CCCCCCCC(=O)OCCCCCCCCC)OCCCC/C=C\CC [Example 7-12] | 76.5 |

---

# key: entry, value: Mean PDI
# assay_protocol: LNP hydrodynamic diameter and PDI by DLS (Example 16 LNPs, Stunner)
# Assay type: physicochemical
# conditions: Example 16 LNPs: 47.5% Ionizable Lipid: 40% cholesterol: 2.5% PEG-2000 DMG: 10% DPSC, N/P 4-8

| compound | Mean PDI |
| --- | --- |
| CC/C=C\CCCCOC(CCC(=O)OCCCCCCCN(CCCCCCCOC(=O)CCC(OCCCC/C=C\CC)OCCCC/C=C\CC)CCCN(CCCO)CCCCCCCC(=O)OCCCCCCCCC)OCCCC/C=C\CC | 0.11 |
| CC/C=C\CCCCOC(CCC(=O)OCCCCCCCN(CCCCCCCOC(=O)CCC(OCCCC/C=C\CC)OCCCC/C=C\CC)CCCN(CCO)CCCCCCCCCOC(=O)C(CCCC)CCCCCC)OCCCC/C=C\CC (centres unmarked) | 0.12 |
| CC/C=C\CCCCOC(CCC(=O)OCCCCCCN(CCO)CCN(CCCCCCCCCOC(=O)C(CCCC)CCCCCC)CCCCCCCCCOC(=O)C(CCCC)CCCCCC)OCCCC/C=C\CC (centres unmarked) | 0.10 |
| CC/C=C\CCCCOC(CCC(=O)OCCCCCCN(CCO)CCCN(CCCCCCCCCOC(=O)C(CCCC)CCCCCC)CCCCCCCCCOC(=O)C(CCCC)CCCCCC)OCCCC/C=C\CC (centres unmarked) | 0.11 |
| CC/C=C\CCCCOC(CCC(=O)OCCCCCCN(CCO)CCCN(CCCCCCOC(=O)CCC(OCCCC/C=C\CC)OCCCC/C=C\CC)CCCCCCOC(=O)CCC(OCCCC/C=C\CC)OCCCC/C=C\CC)OCCCC/C=C\CC | 0.12 |

---

# assay_protocol: LNP hydrodynamic diameter and PDI by DLS (Example 16 LNPs, Stunner)
# Format: physicochemical
# conditions: Example 16 LNPs: 47.5% Ionizable Lipid: 40% cholesterol: 2.5% PEG-2000 DMG: 10% DPSC, N/P 4-8
# key: entry, value: Mean PDI
reported_property: Mean PDI

| compound | reported_property | quantitative_readout |
| --- | --- | --- |
| CC/C=C\CCCCOC(CCC(=O)OCCCCCCCN(CCCCCCCOC(=O)CCC(OCCCC/C=C\CC)OCCCC/C=C\CC)CCCN(CCO)CCCCCCCC(=O)OCCCCCCCCC)OCCCC/C=C\CC [Example 7-4] | Mean PDI | 0.10 |
| CC/C=C\CCCCOC(CCC(=O)OCCCCCCCN(CCCCCCCOC(=O)CCC(OCCCC/C=C\CC)OCCCC/C=C\CC)CCN(CCCO)CCCCCCCC(=O)OCCCCCCCCC)OCCCC/C=C\CC [Example 7-19] | Mean PDI | 0.13 |
| CC/C=C\CCCCOC(CCC(=O)OCCCCCCCN(CCO)CCCN(CCCCCCCCCOC(=O)C(CCCC)CCCCCC)CCCCCCCCCOC(=O)C(CCCC)CCCCCC)OCCCC/C=C\CC (centres unmarked) [Example 7-25] | Mean PDI | 0.13 |
| CC/C=C\CCCCOC(CCC(=O)OCCCCCCCN(CCCO)CCCN(CCCCCCCOC(=O)CCC(OCCCC/C=C\CC)OCCCC/C=C\CC)CCCCCCCOC(=O)CCC(OCCCC/C=C\CC)OCCCC/C=C\CC)OCCCC/C=C\CC [Example 7-29] | Mean PDI | 0.13 |
| CC/C=C\CCCCOC(CCC(=O)OCCCCCCN(CCCCCCOC(=O)CCC(OCCCC/C=C\CC)OCCCC/C=C\CC)CCN(CCO)CCCCCCCC(=O)OCCCCCCCCC)OCCCC/C=C\CC [Example 7-12] | Mean PDI | 0.11 |
